Could you please report measured inhibition for the items listed next?
- ASSAY PROCEDURE: NOD1 signaling inhibitors, primary screen, cell-based, luminescence, uHTS (AID 1578);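 also: HEK-293T reporter cells stimulated with the NOD1 agonist gamma-tri-DAP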
- RUN PARAMETERS: NOD1-driven NF-kB luciferase reporter cells, at 4 µM, stronger effect = higher value
Hit rate of the full screen: of about 290,000 compounds, about 3,000 (1%) were called active. What follows is part of a selection rich in actives, with near analogues and random picks from the rest.
Numbers only, in %.

Solved entries:
| COMPOUND | inhibition [%] |
| --- | --- |
| O=C(Nc1ccc(Cl)c(Cl)c1)Nc1nnc(-c2ccncc2)s1 | -26.4 |
| COc1cccc(CN2CCNC(=O)C2CC(=O)N(C)C2CCCCC2)c1 (stereo unspecified) | -1.2 |
| COc1ccccc1/C=C/C(=O)c1ccccc1 | -6.9 |
| Cc1ccc(NC(=O)Nc2nnc(CSCCOc3ccc(Cl)cc3)s2)cc1 | -1.1 |
| COc1cccc(C(=O)NCCCNC(=O)c2ccco2)c1 | 9.1 |

Could you now look at the following compound, please?
Recorded inhibition (compound "COc1ccccc1/C=C/C(=O)/C=C/c1ccccc1O" ): 94.3

###

Could you please report measured inhibition for the items listed next?
- ASSAY PROCEDURE: NOD1 signaling inhibitors, primary screen, cell-based, luminescence, uHTS (AID 1578);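 also: HEK-293T reporter cells stimulated with the NOD1 agonist gamma-tri-DAP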
- RUN PARAMETERS: NOD1-driven NF-kB luciferase reporter cells, at 4 µM, stronger effect = higher value
The whole screen tested about 290,000 compounds, of which about 3,000 (1%) were called active. The list comes from a sample in which actives are over-represented; it also holds close analogues and randomly drawn compounds.
One number for each entry, in %.

Solved entries:
| COMPOUND | inhibition [%] |
| --- | --- |
| COc1ccccc1CNc1nc(C)c(C(C)=O)s1 | 12.6 |
| CCOc1ccc(S(=O)(=O)N(CC)CC(=O)N2CCOCC2)cc1C | -22.7 |
| c1ccc(CN(Cc2ccccc2)c2ncnc3c2nnn3Cc2ccccc2)cc1 | -2.6 |
| COc1ccc(CCNC(=O)c2ccccc2NC(=O)C2=C(C)OCCS2)c(OC)c1 | 51.1 |
| C/C(=N\NC(=O)c1cccc(Br)c1)c1cccc(NC(=O)c2ccc(C)o2)c1 | -55.5 |
| COc1cc(N/C(=N/S(=O)(=O)c2ccccc2)c2ccccc2)ncn1 | 48.5 |

Please state inhibition for every compound in the list that follows.
1. c1ccc(-c2nn3c(-c4ccccc4)nnc3s2)cc1
2. CCCCCCn1ccc(=N)cc1

Result:
1: -69.4; 2: 41.6

Please state inhibition for every compound in the list that follows.
1. Cc1nc2cc(CO)ccc2n1C
2. COc1ccc(OC)c(CCNC(=O)c2ccccc2NC(=O)C2=C(C)OCCS2)c1
3. CC1=C(C(=O)OCc2ccccc2)C(c2ccc(Cl)cc2)NC(=O)N1C (stereo unspecified)
4. CC1(C)C(=O)CC[C@]2(C)C3C(=O)C=C4[C@H]5C[C@@](C)(C(=O)O)CC[C@]5(C)CC[C@]4(C)[C@]3(C)CC[C@@H]12 (stereo partly specified)
5. Cc1sc2ncnc(Sc3ccccc3C(=O)Nc3ccc(Br)cc3)c2c1C

Result:
[-15.3, -12.2, -1.2, -7.3, 9.8]

Please state inhibition for every compound in the list that follows.
1. C=C(C)[C@@H]1CCC2(C(=O)O)CC[C@]3(C)[C@H](CC[C@@H]4[C@@]5(C)CCC(=O)C(C)(C)[C@@H]5CC[C@]43C)[C@@H]12 (stereo partly specified)
2. COc1ccc(/C=C/c2c([N+](=O)[O-])c(=O)n(C)c(=O)n2C)cc1
3. COc1ccc(Cc2nnc(NC(=O)c3cccc(F)c3)s2)cc1OC

Result:
48.4
-2.9
-8

Please state inhibition for every compound in the list that follows.
1. COc1ccccc1C(=O)N/C(=C\c1cn(S(=O)(=O)N(C)C)c2ccccc12)C(=O)NCCN1CCOCC1
2. O=S(=O)(/N=C(/Nc1cc(N2CCOCC2)ncn1)c1ccccc1)c1ccccc1
3. Cc1cc(C)nc(NS(=O)(=O)c2ccc(NC(=O)c3ccccc3[N+](=O)[O-])cc2)n1
4. O=S(=O)(/N=C(/Nc1ccccn1)c1ccccc1)c1ccccc1
5. C/C(=N\NC(=O)C1(C)CC1(Br)Br)c1ccc(NC(=O)c2ccc(C)o2)cc1 (stereo unspecified)

Result:
-15
0.2
-22.1
5.7
13.4

###

- ASSAY PROCEDURE: NOD1 signaling inhibitors, primary screen, cell-based, luminescence, uHTS (AID 1578);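 also: HEK-293T reporter cells stimulated with the NOD1 agonist gamma-tri-DAP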
- RUN PARAMETERS: NOD1-driven NF-kB luciferase reporter cells, at 4 µM
The whole screen tested about 290,000 compounds, of which about 3,000 (1%) were called active. Rule as the data show it: active = inhibition mostly above about 36% (no sharp cut-off); inactive = mostly below about 34%. The sample holds actives, similar compounds and a random draw of the others, so the mix is not that of the screen.
Select the correct class. Options are y (active), n (inactive) and nothing else.

Check out these entries, answers already filled in.
| COMPOUND | CLASS ASSIGNMENT |
| --- | --- |
| Brc1ccc(-c2nc(-c3ccncc3)no2)cc1 | n |
| CC1CC(=S)Nc2ccccc2N1Cc1ccccc1 (centres undefined) | n |
| CCCCc1nc2sc3c(SCCN(C)C)ncnc3c2c2c1CCC2 | n |
| CC1CN(Cc2ccccc2)c2ccccc2NC1=S (centres undefined) | y |
| Cc1ccc(-c2nnn(CC(=O)N(CCN3CCOCC3)C(C(=O)NC(C)(C)C)c3ccc(C)o3)n2)cc1 (centres undefined) | n |

Problem: How did this test come out for "O=C(Nc1ccccc1)Nc1nc(-c2ccccc2)cs1" ?
Result: n

Problem: How did this test come out for CC1CCc2nc(/C(C#N)=C/c3ccncc3)sc2C1 (centres undefined) ?
Result: y

Problem: How did this test come out for "O=C(CNc1ccc2ccccc2c1)N/N=C/c1ccc([N+](=O)[O-])o1" ?
Result: n

Problem: How did this test come out for "CCOc1ccc(N(CC)C(=O)Cc2c(C(=O)O)n(C)c3ccccc23)cc1" ?
Result: n

Problem: How did this test come out for "CCCCN(c1ccccc1)c1ncnc2nc[nH]c12" ?
Result: n

Problem: How did this test come out for "CCCCN(CCCC)c1ncnc2nc[nH]c12" ?
Result: y

Problem: How did this test come out for CC1CCc2nc(/C(C#N)=C/c3cccnc3)sc2C1 (centres undefined) ?
Result: n

Problem: How did this test come out for "O=c1nc(SCc2c(F)cccc2Cl)nc(-c2ccc(Cl)cc2)[nH]1" ?
Result: n

Problem: How did this test come out for "Nc1nonc1C(=O)N/N=C/c1ccc(Br)o1" ?
Result: n

Problem: How did this test come out for "COc1ccccc1Oc1ccnc2cc(Cl)ccc12" ?
Result: n

Problem: How did this test come out for "Cc1ccc(C(=O)N/N=C\c2ccc([N+](=O)[O-])o2)cn1" ?
Result: n

Problem: How did this test come out for "Cc1nc2cc(NS(=O)(=O)c3c(C)c(C)cc(C)c3C)ccc2s1" ?
Result: n

Problem: How did this test come out for "CCn1c(CC(=O)Nc2ccc(OC)cc2)nnc1SCC(=O)N1CCOCC1" ?
Result: n

Problem: How did this test come out for "O=c1nc(SCc2ccc(Cl)cc2)nc(-c2ccccc2)[nH]1" ?
Result: n

Problem: How did this test come out for "O=C(Nc1cccnc1)c1cc(-c2ccc(Br)cc2)nc2ccccc12" ?
Result: n

Problem: How did this test come out for "Nc1nonc1C(=O)N/N=C/c1ccc(-c2cccc([N+](=O)[O-])c2)o1" ?
Result: n

Problem: How did this test come out for "O=c1nc(SCc2ccccc2Cl)nc(-c2ccc(Cl)cc2)[nH]1" ?
Result: y

Problem: How did this test come out for "O=C(Nc1ccc(O)cc1)/C(=C\C=C\c1ccccc1)NC(=O)c1ccccc1" ?
Result: n

Problem: How did this test come out for "CNC(=O)COC(=O)[C@@H](Nc1ccc(S(=O)(=O)N2CCOCC2)cc1[N+](=O)[O-])C(C)C" ?
Result: n

###

Could you please report measured inhibition for the items listed next?
- ASSAY PROCEDURE: NOD1 signaling inhibitors, primary screen, cell-based, luminescence, uHTS (AID 1578);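 also: HEK-293T reporter cells stimulated with the NOD1 agonist gamma-tri-DAP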
- RUN PARAMETERS: NOD1-driven NF-kB luciferase reporter cells, at 4 µM, stronger effect = higher value
Screen size: about 290,000 compounds; about 3,000 (1%) were called active. The sample holds actives, similar compounds and a random draw of the others, so the mix is not that of the screen.

Solved entries:
| MOLECULE | inhibition |
| --- | --- |
| O=C1CSc2ccc(S(=O)(=O)CCC(=O)NC3CCCCC3)cc2N1 | -26.4% (inactive) |
| Nc1nnc(SCc2nnc(-c3ccccc3)o2)s1 | -21% (inactive) |
| Cc1ccc(Nc2ncnc3c2nnn3Cc2ccccc2)cc1 | -7.5% (inactive) |
| CCOc1ccc(CC2NCCc3cc(OCC)c(OCC)cc32)cc1OCC (stereo not drawn) | -27.9% (inactive) |
| CCOC(=O)c1c(NC(=O)C(=O)N/N=C/c2ccc(OCC)cc2)sc2c1CCCCC2 | -14.4% (inactive) |
| COc1cc(/C=N/NC(=O)c2sc(N)c(C#N)c2C)ccc1O | -14.2% (inactive) |

Please state inhibition for every molecule in the list that follows.
1. CN(C(=O)Nc1ccc(Cl)cc1)c1c2c(nn1C)CCCC2
2. O=C(Nc1cccc(-c2nnc(-c3ccccc3)o2)c1)C1CCCCC1

Result:
-14.8% (inactive)
30.6% (active)
